- measuredOn: T1, Human CXCR2 (human, UniProt P25025 1-360)
- T1 sequence: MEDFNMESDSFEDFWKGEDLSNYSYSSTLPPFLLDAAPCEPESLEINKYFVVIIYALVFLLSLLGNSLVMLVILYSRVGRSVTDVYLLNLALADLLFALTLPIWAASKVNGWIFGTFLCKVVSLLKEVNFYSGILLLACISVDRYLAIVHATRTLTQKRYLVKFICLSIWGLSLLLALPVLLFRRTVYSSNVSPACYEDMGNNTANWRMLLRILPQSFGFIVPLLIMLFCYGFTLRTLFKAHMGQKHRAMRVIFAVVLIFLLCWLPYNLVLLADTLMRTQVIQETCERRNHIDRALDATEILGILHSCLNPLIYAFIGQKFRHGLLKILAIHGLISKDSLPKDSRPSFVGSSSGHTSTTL
- assayRemarks: cell-based or functional assay
quantity: FLIPR IC50, GRO-α induced intracellular calcium release (nM)

These solved cases illustrate the format of a correct answer.
Fill in reported FLIPR IC50, GRO-α induced intracellular calcium release for this entry: 097A09 (VHH, not shown: small tags and cut ends) VHH: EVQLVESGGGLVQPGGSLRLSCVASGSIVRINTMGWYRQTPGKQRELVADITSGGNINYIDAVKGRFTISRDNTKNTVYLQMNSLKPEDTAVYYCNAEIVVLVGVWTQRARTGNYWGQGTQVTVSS 39.9

Fill in reported FLIPR IC50, GRO-α induced intracellular calcium release for this entry: 163E03 (VHH, not shown: small tags and cut ends) VHH: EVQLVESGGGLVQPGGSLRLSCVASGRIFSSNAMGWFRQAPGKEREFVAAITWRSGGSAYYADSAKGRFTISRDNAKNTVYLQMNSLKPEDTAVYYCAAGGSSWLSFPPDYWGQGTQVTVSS 44.3

(I) 137B07 (VHH, not shown: small tags and cut ends) VHH: EVQLVESGGGLVQPGGSVRLSCVASGIIFRLSALGWTRQGPGKAREWVAGINSDGTTNYADPVKGRFTISRDNAKNTIYLHMDMLKPEDTAVYYCASGKYRGQGTQVTVSS
(II) 163D02 (VHH, not shown: small tags and cut ends) VHH: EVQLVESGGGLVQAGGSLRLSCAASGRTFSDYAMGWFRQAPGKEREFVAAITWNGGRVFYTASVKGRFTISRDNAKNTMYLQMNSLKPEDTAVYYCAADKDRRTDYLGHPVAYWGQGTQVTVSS
(III) 54B12 (VHH, not shown: small tags and cut ends) VHH: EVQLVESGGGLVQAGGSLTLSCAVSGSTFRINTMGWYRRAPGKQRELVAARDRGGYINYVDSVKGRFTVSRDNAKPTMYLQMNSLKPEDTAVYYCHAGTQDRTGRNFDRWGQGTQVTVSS
Place the items in sequence of falling FLIPR IC50, GRO-α induced intracellular calcium release. Lab note: record answer as labels in requested order. III, I, II
(III: 153 nM, I: 6.71 nM, II: 1.91 nM)

Values from patent US20170101476A1
